This collection of values is drawn from the supplement of paper PMC3724861.

# Tested on: Caupolican (Caup) homeodomain DNA-binding domain
# Sequence: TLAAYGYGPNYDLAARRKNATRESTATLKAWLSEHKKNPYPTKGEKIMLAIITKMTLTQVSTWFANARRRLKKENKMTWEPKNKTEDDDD
# test_method_notes: PBM E-score (8-mer, recovered from the published 9-mer minima) (E-score (dimensionless, -0.5 to 0.5)); Drosophila protein; higher = stronger relative binding preference, active = 0.31 or more
The entries come from a sample that favours hits as a whole. No count for the full screen is at hand.
// allowed return values: active, inactive

Take a look at these entries with their results.
sequence_data	answer_label
GATGACAA	inactive
CGTCTGCC	inactive
CTCTGGGC	inactive
CGCAGGAC	inactive
CCGTAACG	inactive

-- ask Recorded call for CTTAATCA ?
-- reply inactive

-- ask Recorded call for CTACTACA ?
-- reply inactive

-- ask Recorded call for ACATGATC ?
-- reply active

-- ask Recorded call for GCAAGTTA ?
-- reply inactive

-- ask Recorded call for ACATAATC ?
-- reply inactive

-- ask Recorded call for GTACTACA ?
-- reply active

-- ask Recorded call for ATACTACC ?
-- reply inactive

-- ask Recorded call for AATACAAG ?
-- reply active

-- ask Recorded call for AAAACATA ?
-- reply inactive

-- ask Recorded call for CCAAGTAA ?
-- reply inactive

-- ask Recorded call for AATGACAG ?
-- reply inactive

-- ask Recorded call for TCATGAGA ?
-- reply inactive

-- ask Recorded call for CACGCAAA ?
-- reply inactive

-- ask Recorded call for GATGCCTA ?
-- reply inactive

-- ask Recorded call for AACGATGC ?
-- reply inactive

-- ask Recorded call for CCAGTTCC ?
-- reply inactive

-- ask Recorded call for GCAAGTAA ?
-- reply inactive

-- ask Recorded call for ACCCATCC ?
-- reply inactive

-- ask Recorded call for GTACTAAA ?
-- reply inactive

-- ask Recorded call for CATGACAC ?
-- reply active

-- ask Recorded call for GCCCAGCC ?
-- reply inactive

-- ask Recorded call for ACATGAGA ?
-- reply active

-- ask Recorded call for CGACCCGA ?
-- reply inactive
